Tested System: CD94/NKG2C (Homo sapiens, UniProt P26717+Q13241)
Sequence (P26717 94-231 limits assumed): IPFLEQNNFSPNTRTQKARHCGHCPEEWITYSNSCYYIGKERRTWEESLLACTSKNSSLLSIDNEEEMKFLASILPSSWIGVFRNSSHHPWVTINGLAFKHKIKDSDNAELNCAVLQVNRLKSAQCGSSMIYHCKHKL
Sequence (Q13241 32-179 limits assumed): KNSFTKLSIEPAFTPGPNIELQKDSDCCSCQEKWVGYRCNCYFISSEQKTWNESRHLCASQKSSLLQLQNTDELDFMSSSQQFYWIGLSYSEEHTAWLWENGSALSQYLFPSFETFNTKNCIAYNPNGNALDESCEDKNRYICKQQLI
Test Description: Steady-state surface plasmon resonance of peptide-HLA-E complex with CD94/NKG2C
Type: binding
Settings: CD94/NKG2C concentration 0.4 μM
Where no end group is shown, it is not given here.
Cut-off 0.04 on binding of peptide-HLA-E complex to CD94/NKG2C normalized to a fitted Rmax, inclusive. At or above means Criterion met; below means Criterion not met.

// below: answered sequences
VNPGRSLFL [human5, VNPGRSLFL]: Criterion met
TLPKRGLFL [human2, TLPKRGLFL]: Criterion not met
TGPWRSLWI [human3, TGPWRSLWI]: Criterion not met

Q: Answer whether binding of peptide-HLA-E complex to CD94/NKG2C normalized to a fitted Rmax of QMPSRSLLF [human1, QMPSRSLLF] is greater than or equal to 0.04.
Result: Criterion not met
